tested on: A/PR/8/34 (H1N1); assay: in vitro; settings: dog, SI (selective index, CC50/IC50)
# key: entry, value: selectivity ratio
attributeMeasured: selectivity ratio

compound="CC(C)c1cc2c(cc1O)[C@@]1(C)CCC[C@@](C)(C=O)[C@@H]1CC2 [Compound 2, 18-oxoferruginol]" result=2.13
compound="CC(C)c1cc2c(cc1O)[C@@]1(C)CCC[C@@](C)(CO)[C@@H]1CC2 [Compound 1, 18-hydroxyferruginol]" result=1.68

----------
assay: in vitro; conditions: dog
attributeMeasured: CC50

compound=CC(C)c1cc2c(cc1O)[C@@]1(C)CCC[C@@](C)(C=O)[C@@H]1CC2 result="41.2 µM"
compound="CC(C)c1cc2c(cc1O)[C@@]1(C)CCC[C@@](C)(CO)[C@@H]1CC2 [Compound 1, 18-hydroxyferruginol]" result="35.5 µM"
compound="CCOC(=O)C1=C[C@@H](OC(CC)CC)[C@H](NC(C)=O)[C@@H](N)C1 [Olseltamivir, oseltamivir, reference compound]" result="> 500 µM"

----------
system: A/Chicken/Korea/MS96/96 (H9N2); test: in vitro; settings: dog, SI (selective index, CC50/IC50)
# key: entry, value: selectivity ratio
attributeMeasured: selectivity ratio

compound="CC(C)c1cc2c(cc1O)[C@@]1(C)CCC[C@@](C)(C=O)[C@@H]1CC2 [Compound 2, 18-oxoferruginol]" targetundertest="A/Chicken/Korea/MS96/96 (H9N2)" attributemeasured="selectivity ratio" result=3.6
compound="CC(C)c1cc2c(cc1O)[C@@]1(C)CCC[C@@](C)(CO)[C@@H]1CC2 [Compound 1, 18-hydroxyferruginol]" targetundertest="A/Chicken/Korea/MS96/96 (H9N2)" attributemeasured="selectivity ratio" result=1.79
